Test system: RAW264.7
testProtocol: Anti-inflammatory activity in LPS induced mouse RAW264.7 cells assessed as inhibition of NO production by MTT method
Format: functional, cell-based
// IC50 lookup, one value per entry
Entry rule: numbers only, all in µM.

Below are worked cases with known answers.
# compound, IC50 [µM]
rows = [
    ("C=C1CC[C@H]2C(=C)CC[C@@H]3[C@H](OC(=O)[C@]3(CC(C)O)C[C@@H]3C(=O)O[C@H]4[C@H]3CCC(=C)[C@@H]3CCC(=C)[C@@]34C)[C@@H]12 (some centres undefined)", 2.46),
    ("C=C1CC[C@H]2C(=C)CC[C@@H]3[C@H](OC(=O)[C@H]3C[C@@]3(CC(C)=O)C(=O)O[C@@H]4[C@H]5C(C)=CCCC5(C)CC[C@H]43)[C@@H]12 (some centres undefined)", 7.24),
    ("C=C1CC[C@H]2C(=C)CC[C@@H]3[C@H](OC(=O)[C@H]3C[C@@]3(CC(C)=O)C(=O)O[C@@H]4C/C(C)=C\\CC/C=C(/C)C[C@H]43)[C@@H]12", 4.89),
]

Read the next record carefully.
Problem: Give the value of IC50 reported for the following: "C=C1CC[C@H]2C(=C)CC[C@@H]3[C@H](OC(=O)[C@]3(CC(C)=O)C[C@@H]3C(=O)O[C@@H]4/C=C(/C)CC/C=C(/C)CC[C@@H]34)[C@@H]12"
Result: 1.88
